ASSAYED_TARGET: anti-CD28 Fab
Sequence (VH, as listed by the source, chain 1 of 2): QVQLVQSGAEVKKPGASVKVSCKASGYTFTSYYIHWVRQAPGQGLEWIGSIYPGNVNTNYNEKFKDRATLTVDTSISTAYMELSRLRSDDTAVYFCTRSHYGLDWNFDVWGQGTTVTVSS
Sequence (VL, as listed by the source, chain 2 of 2): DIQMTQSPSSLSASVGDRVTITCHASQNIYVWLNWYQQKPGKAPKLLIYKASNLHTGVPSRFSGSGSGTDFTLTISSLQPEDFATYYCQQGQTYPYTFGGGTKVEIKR
PROTOCOL: competition ELISA, peptide titrated 0-100 uM against 1 nM anti-CD28 Fab, plate-bound CD28 as competitor
QUANTITY_NAME: IC50 (µM)
The response must be a number in µM with no trailing unit.

Exercise: Give the measured IC50 of YCAGHAWQYINKCL [Peptide-87] .
Solution: 12.6

Exercise: Give the measured IC50 of YCAGHAWAYINKCL [Peptide-111] .
Solution: 12.3

Exercise: Give the measured IC50 of SCAAGAAYAWPYCL [Peptide-101] .
Solution: 7.42

Exercise: Give the measured IC50 of SCAAGASYAWPYCL [Peptide-92] .
Solution: 7.89

Exercise: Give the measured IC50 of YCAGHAAQYINKCL [Peptide-110] .
Solution: 3.16

Exercise: Give the measured IC50 of ACAAGASYAWPYCL [Peptide-99] .
Solution: 21

Exercise: Give the measured IC50 of SCAAGASYAWPYCA [Peptide-106] .
Solution: 76.4

Exercise: Give the measured IC50 of YCAGHAWQYINKCA [Peptide-116] .
Solution: 98.6
